System: Plasmodium berghei
run.description: Screen against P. berghei liver stage (PbLuc), transformed with Luciferase, at 10uM
Type: functional, HepG2
study.conditions: tested at 10 uM
In all, about 69,000 compounds went through this assay and about 8,600 (12%) showed an effect of 50% or more. Shown is part of a subset that was picked to be rich in strong results.
Label MET when INHIBITION is at or above 20%; anything below gets NOT MET.

Answered cases to consult:
>  <compound>
O=C(Cn1cnc2sccc2c1=O)NCCc1nnc2ccccn12

>  <classification>
MET

$$$$
>  <compound>
COc1cccc(CC(=O)N2CC[C@@H]3NC(=O)CC[C@@H]32)c1

>  <classification>
NOT MET

$$$$

Q: Entry Cc1cc(C)c(CNC(=O)N2CCOC(c3ccccc3)C2)c(=O)[nH]1 (stereo not given) : is its INHIBITION no less than 20%?
Ans: MET

Sourced from ChEMBL document CHEMBL4513216
